Assay: Metabolic stability in rat microsomes assessed as half life
Type: ADME, Microsome
quantityName: half-life (h)
Express the result in h but write the number alone.

// below: answered compounds
{"querySmiles": "O=C1c2cc(-c3ccc(OC(F)(F)F)cc3)ccc2OCCN1CCc1ncccn1", "half-life, h": 0.467}
{"querySmiles": "O=C1c2cc(-c3ccc(OC(F)(F)F)cc3)ccc2OCCN1Cc1ncccn1", "half-life, h": 3.33}
{"querySmiles": "COc1ccnc(CN2CCOc3ccc(-c4ccc(OC(F)(F)F)cc4)cc3C2=O)n1", "half-life, h": 4.52}
{"querySmiles": "O=C1c2cc(-c3ccc(C(F)(F)F)cc3)ccc2OCCN1Cc1ncccn1", "half-life, h": 3.52}
{"querySmiles": "O=C1c2cc(-c3ccc(OC(F)(F)F)cc3)ccc2CCN1Cc1ncccn1", "half-life, h": 2.5}
{"querySmiles": "O=C1c2cc(-c3ccc(C(F)(F)F)cc3)ccc2CCN1Cc1ncccn1", "half-life, h": 5.9}
{"querySmiles": "O=C1c2cc(-c3ccc(OC(F)(F)F)cc3)ccc2OCCN1Cc1ccccn1", "half-life, h": 1.15}
{"querySmiles": "O=C1c2cc(-c3ccc(Cl)c(F)c3)ccc2OCCN1Cc1ncccn1", "half-life, h": 1.63}

Query: Requested read-out: half-life. Entry: `O=C1c2cc(-c3ccc(OC(F)(F)F)cc3)ccc2OCCN1Cc1ncccc1F`
Reply: 1.48

Query: Requested read-out: half-life. Entry: `O=C1c2cc(-c3ccc(OC(F)(F)F)c(Cl)c3)ccc2OCCN1Cc1ncccn1`
Reply: 5.63
